# testedTarget: recombinant human ACC2 (Homo sapiens (Human))
# protocolText: Measurement of inhibitory activity on human ACC2 (MALDI-TOF MS, acetyl CoA to malonyl CoA conversion)
# Format: biochemical
# conditionInfo: Tables 155-159
valueKind: IC50 (nM)

A. CC(=O)N[C@@H](C)CO[C@H]1CC[C@H](Oc2ncc3nc(N4CC(F)(F)C4)sc3c2F)CC1 [Compound I-241]
B. CC(=O)N[C@@H](C)CO[C@H]1C[C@H](COc2ccc3nc(C(C)(F)F)sc3c2F)C1 [Compound I-107]
C. CC(=O)N[C@@H](C)CO[C@H]1C[C@H](COc2ncnc3c2ccn3CC2CCCCC2)C1 [Compound I-449]
D. CC(=O)N[C@@H](C)CO[C@H]1C[C@H](COc2nccc3c2ccn3Cc2ccccc2)C1 [Compound I-329]
Exam item: Put the items in order so that reported IC50 rises from first to last. I would appreciate it if you listed the labels in the requested order.
Marked response: D, C, B, A
(D: 14 nM, C: 51 nM, B: 97 nM, A: 173 nM)

###

# testedTarget: recombinant human ACC2 (Homo sapiens (Human))
# protocolText: Measurement of inhibitory activity on human ACC2 (MALDI-TOF MS, acetyl CoA to malonyl CoA conversion)
# Assay type: biochemical
# conditionInfo: Tables 155-159
valueKind: IC50 (nM)

Sample records with IC50:
> print(dat)
                                    compound  valuekind  measurednumber
 1  CC(=O)N[C@@H](C)CO[C@H]1C[C@H](COc2ccc3nc(C(C)C)sc3n2)C1       IC50              16
 2  CC(=O)N[C@@H](C)CO[C@H]1C[C@H](COc2ccc3nc(OCC(F)(F)F)sc3c2F)C1       IC50              64
 3  CCOc1nc2ccc(OC[C@]3(F)C[C@H](OC[C@H](C)NC(C)=O)C3)nc2s1       IC50              48
 4  CCOc1cc2c(nc(O[C@H]3CC[C@H](OC[C@H](C)NC(C)=O)CC3)n2C)c(F)n1       IC50              73
 5  CC(=O)N[C@@H](C)CO[C@H]1C[C@H](COc2ncnc(OCc3cc(Cl)ccn3)c2Cl)C1       IC50               4
 6  CC(=O)N[C@@H](C)CO[C@H]1CC[C@H](Oc2ccc3nc(OC4COC4)sc3c2F)CC1       IC50              57
 7  CC(=O)N[C@@H](C)CO[C@H]1CC[C@H](Oc2ncc(-c3ncccn3)cc2F)CC1       IC50             105
 8  CC(=O)N[C@@H](C)CO[C@H]1C[C@](F)(COc2ccc3nc(Oc4ccc(F)cc4)sc3n2)C1       IC50             113
 9  CC(=O)N[C@@H](C)CO[C@H]1C[C@H](COc2ccc3nc(N4CCC(F)(F)C4)sc3n2)C1       IC50              27
10  CC(=O)N[C@@H](C)CO[C@H]1C[C@H](COc2ncnc(OCc3nnc(C(F)(F)F)s3)c2Cl)C1       IC50             240

a. CC(=O)N[C@@H](C)CO[C@H]1CC[C@H](Oc2nc3c(F)c(C#N)c(OCC(F)F)c(F)c3n2C)CC1
b. CC(=O)N[C@@H](C)CO[C@H]1C[C@H](COc2ccc3nc(C(C)(C)O)sc3c2)C1
c. CC(=O)N[C@@H](C)CO[C@H]1CC[C@H](Oc2ncc(-c3ncc(F)cn3)cc2OCc2ccccc2)CC1
Exam item: Order these by IC50, descending, and give the full ranking. Answer format: the labels, ordered as requested.
Marked response: c, b, a
(c: 975 nM, b: 404 nM, a: 44 nM)

###

# testedTarget: recombinant human ACC2 (Homo sapiens (Human), UniProt O00763)
# Sequence (O00763 27-2458): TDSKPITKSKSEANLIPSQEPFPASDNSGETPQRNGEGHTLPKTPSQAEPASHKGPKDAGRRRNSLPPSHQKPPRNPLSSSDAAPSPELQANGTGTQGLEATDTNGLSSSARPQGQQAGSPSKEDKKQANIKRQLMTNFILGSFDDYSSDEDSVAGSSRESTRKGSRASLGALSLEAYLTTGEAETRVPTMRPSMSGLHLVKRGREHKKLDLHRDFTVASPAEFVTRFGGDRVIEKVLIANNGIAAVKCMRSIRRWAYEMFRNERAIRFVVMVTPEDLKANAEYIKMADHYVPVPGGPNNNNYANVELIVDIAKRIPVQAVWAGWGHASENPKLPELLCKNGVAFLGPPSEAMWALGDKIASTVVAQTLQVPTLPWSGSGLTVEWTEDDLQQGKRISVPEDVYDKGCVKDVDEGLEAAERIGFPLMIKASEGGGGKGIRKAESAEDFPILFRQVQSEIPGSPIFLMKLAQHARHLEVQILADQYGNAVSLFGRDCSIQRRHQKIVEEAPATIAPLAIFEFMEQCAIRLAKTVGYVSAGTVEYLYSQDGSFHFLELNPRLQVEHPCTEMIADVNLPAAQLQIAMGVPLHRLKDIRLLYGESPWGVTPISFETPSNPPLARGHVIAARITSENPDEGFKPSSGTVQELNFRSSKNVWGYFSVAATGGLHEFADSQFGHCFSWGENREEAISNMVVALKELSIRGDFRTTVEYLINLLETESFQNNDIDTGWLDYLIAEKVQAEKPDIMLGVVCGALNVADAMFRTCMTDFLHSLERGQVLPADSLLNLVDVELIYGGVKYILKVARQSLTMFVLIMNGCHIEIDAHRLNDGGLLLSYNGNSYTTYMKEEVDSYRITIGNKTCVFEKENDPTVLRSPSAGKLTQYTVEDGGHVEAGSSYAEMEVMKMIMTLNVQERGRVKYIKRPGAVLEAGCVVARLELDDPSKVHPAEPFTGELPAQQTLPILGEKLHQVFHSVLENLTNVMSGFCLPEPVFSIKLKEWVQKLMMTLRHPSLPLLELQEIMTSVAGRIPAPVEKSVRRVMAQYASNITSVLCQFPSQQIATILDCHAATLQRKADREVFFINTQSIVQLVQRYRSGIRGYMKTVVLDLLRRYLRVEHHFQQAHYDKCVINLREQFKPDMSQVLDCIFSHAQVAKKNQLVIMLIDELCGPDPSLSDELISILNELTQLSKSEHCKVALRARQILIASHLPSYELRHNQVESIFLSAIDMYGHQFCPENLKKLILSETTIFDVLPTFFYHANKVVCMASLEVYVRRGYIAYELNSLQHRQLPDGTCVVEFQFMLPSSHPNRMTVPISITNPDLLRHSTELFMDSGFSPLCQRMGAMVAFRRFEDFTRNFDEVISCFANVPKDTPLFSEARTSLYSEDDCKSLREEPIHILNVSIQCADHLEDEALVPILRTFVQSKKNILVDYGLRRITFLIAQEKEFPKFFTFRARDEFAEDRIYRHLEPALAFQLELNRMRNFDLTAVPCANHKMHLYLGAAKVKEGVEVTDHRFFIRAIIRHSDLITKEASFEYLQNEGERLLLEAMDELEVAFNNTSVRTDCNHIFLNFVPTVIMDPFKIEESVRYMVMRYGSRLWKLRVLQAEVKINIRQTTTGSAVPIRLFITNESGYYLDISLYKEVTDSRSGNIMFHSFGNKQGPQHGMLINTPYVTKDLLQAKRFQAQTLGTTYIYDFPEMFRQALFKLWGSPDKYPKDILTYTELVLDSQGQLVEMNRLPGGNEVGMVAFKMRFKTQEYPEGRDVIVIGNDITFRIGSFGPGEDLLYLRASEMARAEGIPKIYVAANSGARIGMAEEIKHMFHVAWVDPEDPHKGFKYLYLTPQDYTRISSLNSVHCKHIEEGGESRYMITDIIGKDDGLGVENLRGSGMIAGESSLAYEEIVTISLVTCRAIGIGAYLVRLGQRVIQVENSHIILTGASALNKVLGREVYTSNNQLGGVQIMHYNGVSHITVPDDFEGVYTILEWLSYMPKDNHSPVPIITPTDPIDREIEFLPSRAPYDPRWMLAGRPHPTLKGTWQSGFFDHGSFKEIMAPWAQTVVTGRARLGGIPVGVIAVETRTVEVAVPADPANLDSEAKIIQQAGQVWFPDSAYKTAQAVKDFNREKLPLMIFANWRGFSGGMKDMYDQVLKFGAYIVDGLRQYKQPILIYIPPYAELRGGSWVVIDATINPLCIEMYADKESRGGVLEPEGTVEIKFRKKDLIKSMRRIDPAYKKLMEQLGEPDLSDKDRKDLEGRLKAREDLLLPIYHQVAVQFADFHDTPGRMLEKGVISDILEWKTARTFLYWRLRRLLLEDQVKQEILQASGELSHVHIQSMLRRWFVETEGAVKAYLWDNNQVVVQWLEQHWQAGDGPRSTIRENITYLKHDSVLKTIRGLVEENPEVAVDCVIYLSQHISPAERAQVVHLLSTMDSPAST
# protocolText: Measurement of inhibitory activity on human ACC2 (MALDI-TOF MS, acetyl CoA to malonyl CoA conversion)
# Format: biochemical
# conditionInfo: Tables 155-159
valueKind: IC50 (nM)

> print(dat)
                      structuresmilesstring  measurednumber
1  CC(=O)N[C@@H](C)CO[C@H]1CC[C@H](Oc2ccc3nc(OC(C)C)n(C)c3n2)CC1              46
2  CC(=O)N[C@@H](C)CO[C@H]1C[C@H](COc2nccc3c2CCN3CC2CC2)C1              32
3  CC(=O)N[C@@H](C)CO[C@H]1CC[C@H](Oc2cc3sc(O[C@H]4C[C@@H](C#N)C4)nc3cn2)CC1              83
4  CCOc1nc2ccc(OC[C@H]3C[C@H](OC[C@H](C)NC(C)=O)C3)c(Cl)c2n1C             480

a. COc1ccc(-c2ncnc(OC[C@H]3C[C@H](OC[C@H](C)NC(C)=O)C3)c2C)cc1
b. CC(=O)N[C@@H](C)CO[C@H]1CC[C@H](Oc2nc3cc(F)c(OCC(F)F)c(F)c3n2C)CC1
c. CC(=O)N[C@@H](C)CO[C@H]1C[C@H](COc2ccc3nc(N(C)C)sc3n2)C1
Exam item: Arrange the 3 entries by IC50 so the values rise. Please respond with the labels ordered as the question requires.
Marked response: b, c, a

###

# testedTarget: recombinant human ACC2 (Homo sapiens (Human), UniProt O00763)
# protocolText: Measurement of inhibitory activity on human ACC2 (MALDI-TOF MS, acetyl CoA to malonyl CoA conversion)
# Type: biochemical
# conditionInfo: Tables 155-159
valueKind: IC50 (nM)

A selection of reference data follows.
> print(dat)
                                   compound  quantityunit  measurednumber
1  CC(=O)N[C@@H](C)CO[C@H]1C[C@H](COc2ncnc3c2ccn3Cc2ccccc2)C1 [Compound I-430]            nM              12
2  CCOc1ccc2nc(O[C@H]3CC[C@H](OC[C@H](C)NC(C)=O)CC3)n(C3CC3)c2c1 [Compound I-568]            nM             225

A. CC(=O)N[C@@H](C)CO[C@H]1CC[C@H](Oc2ccc3nc(N4CCC(F)(F)C4)sc3c2F)CC1 [Compound I-189]
B. CC(=O)N[C@@H](C)CO[C@H]1CC[C@H](Oc2cc3sc(OCC4CC4)nc3cn2)CC1 [Compound I-183]
C. CC(=O)N[C@@H](C)CO[C@H]1C[C@H](COc2ncnc(OCc3ncccc3F)c2Cl)C1 [Compound I-405]
Exam item: Please list the entries, largest IC50 first. To answer, arrange all of the labels according to the requested order.
Marked response: C, A, B

I. CC(=O)N[C@@H](C)CO[C@H]1CC[C@H](Oc2nc3ccc(Oc4ccccc4)cc3n2C)CC1 [Compound I-586]
II. CCOc1nc2cc(F)c(O[C@H]3CC[C@H](OC[C@H](C)NC(C)=O)CC3)nc2s1 [Compound I-186]
Exam item: For this pair, I and II , which shows a numerically higher IC50? Mark your selection by writing its label.
Marked response: I

###

# testedTarget: recombinant human ACC2 (Homo sapiens (Human))
# protocolText: Measurement of inhibitory activity on human ACC2 (MALDI-TOF MS, acetyl CoA to malonyl CoA conversion)
# Assay type: biochemical
# conditionInfo: Tables 155-159
valueKind: IC50 (nM)

Consider the worked cases shown below.
> print(dat)
                                   compound  valuekind  quantityunit  measurednumber
1  CC(=O)N[C@@H](C)CO[C@H]1C[C@H](COc2ncnc(OCc3ncc(Cl)cn3)c2Cl)C1 [Compound I-353]       IC50            nM              11
2  CC(=O)N[C@@H](C)CO[C@H]1C[C@H](COc2nccc(-c3ncc(OC(C)C)cn3)c2Cl)C1 [Compound I-312]       IC50            nM             401
3  CC(=O)N[C@@H](C)CO[C@H]1C[C@H](COc2ncnc(OCc3cscn3)c2Cl)C1 [Compound I-412]       IC50            nM              42
4  CC(=O)N[C@@H](C)CO[C@H]1C[C@H](COc2ncnc3c2c(C#N)cn3CC2CC2)C1 [Compound I-427]       IC50            nM             270
5  CC(=O)N[C@@H](C)CO[C@H]1C[C@](F)(COc2cc3sc(C(C)C)nc3cn2)C1 [Compound I-174]       IC50            nM             931

P. CC(=O)N[C@@H](C)CO[C@H]1CC[C@H](Oc2ccc3nc(OCC(C)(F)F)n(C)c3n2)CC1 [Compound I-500]
Q. C[C@@H](CO[C@H]1CC[C@H](Oc2ccc3nc(C(C)(F)F)sc3c2F)CC1)NC(=O)C1COC1 [Compound I-166]
Exam item: Pick one, P or Q : lowest reported IC50. Pick one; state its label.
Marked response: P

From: patent US10150728B2
